- System: HCT-15 colon
- experiment-description: NCI-60 one-dose screen, 48 h
- conditions-used: 10 µM unless noted
This is part of a sample that, as a whole, favours compounds with a hit. Of some 83,000 tested, about 20% had one in any assay. Calls of active or inactive are those of the source. The calls were made as follows: active = growth percent below 10; inactive = the rest.
Pick one: label 1 (active), label 0 (inactive)

Some solved entries appear below for comparison.
| smiles-entry | assigned-class |
| --- | --- |
| COc1ccc(-c2nc3ccc(C)cc3c3c2c(=O)n(C)c(=O)n3C)cc1OC | label 0 |
| CC1=C(Cl)C(=O)c2cc(C)ccc2C1=O | label 0 |
| O=C1NC(=O)C(c2coc3cc(Br)ccc23)=C1c1c[nH]c2ccccc12 | label 0 |
| C=C(C)[C@@H]1CC[C@]2(C(=O)Nc3ccccn3)CC[C@]3(C)[C@H](CC[C@@H]4[C@@]5(C)CCCNC(C)(C)[C@@H]5CC[C@]43C)[C@@H]12 | label 0 |

Now, please, on to the next compound.
[in] Please indicate how the test categorized O=C(NNc1nc2cc(F)ccc2n2c(CN3CCOCC3)ccc12)c1ccccc1 .
[out] label 0

====

- Tested on: OVCAR-5 ovarian
- experiment-description: NCI-60 one-dose screen, 48 h (100 = growth as untreated, 0 = no growth, -100 = all killed)
- conditions-used: 10 µM unless noted
About 83,000 compounds went through this panel and 20% of them were active in at least one assay; those are over-represented in the sample as a whole. Activity calls are given as the source filed them. How the source made its calls: active means growth percent below 10; inactive means the rest.
property-measured: growth

Below: 4 compounds and their reported growth.
| compound | growth |
| --- | --- |
| Nc1cccc(-c2ccc(COc3ccc(CC4SC(=O)NC4=O)cc3)cc2)c1 (centres undefined) | 92.2% (inactive) |
| Cc1cc2oc(/C=C/c3ccccc3)cc(=O)c2c(C)c1Cl | 104% (inactive) |
| C#COc1cccc(Nc2ncnc3cc(NC(=O)[C@H](C)Cl)ccc23)c1 | 25% [6.25 µM] (inactive) |
| O=C(NC1CCC(Br)CC1)C1CCCC(S(=O)(=O)NC2CCCCC2)C1 (centres undefined) | 39.2% [25 µM] (inactive) |

[in] Quickly give me recorded growth for CCNC(=O)N1CCc2c(Br)c3c(c(OC)c2C1Cc1ccc(OC)cc1)OCO3 (centres undefined)
[out] 74.4% (inactive)

[in] Respond only with growth recorded for COc1cc(C=C2C(=O)NC(=S)NC2=O)cc(CN2CCCC2)c1O
[out] 106% (inactive)

[in] Report growth, nothing else, for this compound: CCN(CC)CCOc1ccc(C(=O)/C=C\c2ccc(Cl)cc2Cl)cc1
[out] 68% (inactive)

[in] Return the recorded growth value; entry: C=C1C(=O)O[C@H]2[C@H]1CC/C(COC(=O)/C=C\C(=O)NCc1ccc(Cn3c(=O)sn(CCCCl)c3=O)cc1)=C\CC[C@@]1(C)O[C@@H]21
[out] 82.2% (inactive)

[in] Could you please provide reported growth for COC(=O)c1ccc2cc(OC)c(OC)cc2c1 ? Thanks!
[out] 101% (inactive)

[in] Return the recorded growth value; entry: CCOc1ncc([N+](=O)[O-])c(OCC)n1
[out] 101% (inactive)

[in] Recall and state the measured growth for O=C(NCCN1CCOCC1)OCc1ccc2c(Cl)cc(Cl)c(O)c2n1 .
[out] 106% (inactive)

[in] Quote growth reported for CC(C)=CC(=O)N[C@H]1CC[C@]2(C)C3CC[C@]4(C)C(C(C)N(C)C)=CCC4C3CCC2[C@H]1O (some centres undefined) please.
[out] 101% (inactive)

[in] # return recorded growth for input COC(=O)/C=C1/SC(=Nc2ccc(F)cc2)N(CCc2c[nH]c3ccc(O)cc23)C1=O
[out] 76.3% (inactive)

[in] Kindly indicate its recorded growth. Item: Cn1cc(-c2csc(-c3cn(C)c4ccccc34)n2)c2cnccc21
[out] 77.4% (inactive)

[in] Give the reported value of growth for this record: O=C(Nc1ccccc1O)c1ccc(CNc2ccnc(C(F)(F)F)c2)cc1
[out] 76.6% (inactive)

[in] Assign growth to the following record: CCN1C2CCC1/C(=C\c1ccccc1)C(=O)/C2=C/c1ccccc1
[out] 88.3% (inactive)

[in] Kindly indicate its recorded growth. Item: Cn1c(C#N)ccc1-c1ccc(F)c(NC(=O)c2ccc(F)cc2)c1
[out] 85.4% (inactive)

[in] Using the record for C[N+]1=C(/C=C/c2ccccc2Cl)C(C)(C)c2ccccc21 , state its measured growth.
[out] 100% (inactive)

[in] Give growth for O=C(/C=C/c1ccco1)Nc1ncc(Cc2cc(Cl)ccc2Cl)s1
[out] 34% (inactive)

[in] Hello, please tell me recorded growth for this one: Cc1ccc(-c2csc(NC(=O)CSc3nc(N)cc(N)n3)n2)cc1
[out] 91.2% (inactive)

[in] Please give the documented growth of COc1cc(-c2ccc(-c3ccc(C(=N)N)cc3)s2)cc(OC)c1OC
[out] 83% (inactive)

[in] Report growth for Nc1nc(C(=O)N/N=C/c2ccc(F)cc2)nn1-c1ccc(S(N)(=O)=O)cc1
[out] 104% (inactive)

[in] For the compound C#Cc1cccc(NC(=O)C2CCCCN2C(=O)CCl)c1 (centres undefined) , give its reported growth.
[out] -95% [8.25 µM] (active)

====

- System: MDA-MB-435 melanoma
- experiment-description: NCI-60 one-dose screen, 48 h (100 = growth as untreated, 0 = no growth, -100 = all killed)
- conditions-used: 10 µM unless noted
This is part of a sample that, as a whole, favours compounds with a hit. Of some 83,000 tested, about 20% had one in any assay.
property-measured: growth (%)
Response body: numeric value in %, unit text excluded.

| smiles-entry | unit-tag | measured-result |
| --- | --- | --- |
| O=c1cc(C(F)(F)F)c2cc(-c3cc4ccccc4c(=O)o3)c(O)cc2o1 | % | 72.8 |
| O=C(Nc1nc(Cl)nc(Nc2ccc(N3CCOCC3=O)cc2)n1)c1ccc(Cl)s1 | % | 96.4 |

[in] Entry Clc1ccc(Nc2nnc(CNc3ccccc3)c3ccccc23)cc1 needs its growth filled in; supply it.
[out] 4.17

[in] Give recorded growth. COc1cc(C=Nc2oc(-c3ccccc3)c(-c3ccccc3)c2C#N)cc(CN2CCCC2)c1O
[out] 104

[in] Give the reported growth for this compound. Clc1ccc(-c2nc(C(Cl)Cl)nc3cc(-c4ccccc4)nn23)cc1
[out] 37.9

====

- System: HS 578T breast
- experiment-description: NCI-60 one-dose screen, 48 h
- conditions-used: 10 µM unless noted
Compounds without any hit were thinned out: in the full panel of roughly 83,000, 20% have a hit. Activity calls are given as the source filed them. The calls were made as follows: active = growth percent below 10; inactive = the rest.
Just give me one of these, please: 1.0 = active, 0.0 = inactive

Answered cases to consult:
| compound | assigned-class |
| --- | --- |
| CCOC(=O)c1ccc[nH]1 | 0.0 |
| CN(C)c1ccc([C@@H](C(=O)Nc2cccc([N+](=O)[O-])c2)N(C(=O)c2cc3ccccc3[nH]2)c2cccc([N+](=O)[O-])c2)cc1 | 0.0 |
| O=S(O)c1cc(Cl)cc(Cl)c1OCc1ccccc1 | 0.0 |
| COc1ccc(-c2nc3ccc(C)cc3c3c2c(=O)n(C)c(=O)n3C)cc1OC | 0.0 |
| COc1ccc(C(=O)/C=C/c2ccccc2)cc1S(N)(=O)=O | 0.0 |

# ---- query compound ----
[in] Test call, this compound: N#Cc1c(-c2ccc(Br)cc2)nc2c(N=Nc3ccc(S(N)(=O)=O)cc3)c(N)nn2c1N
[out] 0.0

====

- System: SNB-19 CNS
- experiment-description: NCI-60 one-dose screen, 48 h (100 = growth as untreated, 0 = no growth, -100 = all killed)
- conditions-used: 10 µM unless noted
Compounds without any hit were thinned out: in the full panel of roughly 83,000, 20% have a hit. Calls of active or inactive are those of the source. The calls were made as follows: active = growth percent below 10; inactive = the rest.
This section presents molecules with their documented growth values.

Worked cases, answers included:
| smiles-entry | measured-target | growth |
| --- | --- | --- |
| C=C(C)[C@@H]1CC[C@]2(C(=O)Nc3ccccn3)CC[C@]3(C)[C@H](CC[C@@H]4[C@@]5(C)CCCNC(C)(C)[C@@H]5CC[C@]43C)[C@@H]12 | SNB-19 CNS | 25% (inactive) |
| CCOc1ccc(/C=C/C(=O)c2cccc(OCCCOc3cccc(C(=O)/C=C/c4ccc(OCC)cc4)c3)c2)cc1 | SNB-19 CNS | 92.1% (inactive) |
| C=C1C(=O)O[C@H]2[C@H]1CC/C(COC(=O)NCc1ccc(Cn3c(=O)sn(-c4ccccc4)c3=O)cc1)=C\CC[C@@]1(C)O[C@@H]21 | SNB-19 CNS | 92.4% (inactive) |

Here's the next entry for you.
[in] Please list growth recorded for the molecule CCN(CC)CCOc1ccc2c(-c3ccccc3)c(-c3ccc(OC)cc3)c(=O)oc2c1
[out] 69% (inactive)
